- target.entity: A disintegrin and metalloproteinase with thrombospondin motifs 5 (Homo sapiens, UniProt Q9UNA0)
- Sequence (Q9UNA0 whole entry): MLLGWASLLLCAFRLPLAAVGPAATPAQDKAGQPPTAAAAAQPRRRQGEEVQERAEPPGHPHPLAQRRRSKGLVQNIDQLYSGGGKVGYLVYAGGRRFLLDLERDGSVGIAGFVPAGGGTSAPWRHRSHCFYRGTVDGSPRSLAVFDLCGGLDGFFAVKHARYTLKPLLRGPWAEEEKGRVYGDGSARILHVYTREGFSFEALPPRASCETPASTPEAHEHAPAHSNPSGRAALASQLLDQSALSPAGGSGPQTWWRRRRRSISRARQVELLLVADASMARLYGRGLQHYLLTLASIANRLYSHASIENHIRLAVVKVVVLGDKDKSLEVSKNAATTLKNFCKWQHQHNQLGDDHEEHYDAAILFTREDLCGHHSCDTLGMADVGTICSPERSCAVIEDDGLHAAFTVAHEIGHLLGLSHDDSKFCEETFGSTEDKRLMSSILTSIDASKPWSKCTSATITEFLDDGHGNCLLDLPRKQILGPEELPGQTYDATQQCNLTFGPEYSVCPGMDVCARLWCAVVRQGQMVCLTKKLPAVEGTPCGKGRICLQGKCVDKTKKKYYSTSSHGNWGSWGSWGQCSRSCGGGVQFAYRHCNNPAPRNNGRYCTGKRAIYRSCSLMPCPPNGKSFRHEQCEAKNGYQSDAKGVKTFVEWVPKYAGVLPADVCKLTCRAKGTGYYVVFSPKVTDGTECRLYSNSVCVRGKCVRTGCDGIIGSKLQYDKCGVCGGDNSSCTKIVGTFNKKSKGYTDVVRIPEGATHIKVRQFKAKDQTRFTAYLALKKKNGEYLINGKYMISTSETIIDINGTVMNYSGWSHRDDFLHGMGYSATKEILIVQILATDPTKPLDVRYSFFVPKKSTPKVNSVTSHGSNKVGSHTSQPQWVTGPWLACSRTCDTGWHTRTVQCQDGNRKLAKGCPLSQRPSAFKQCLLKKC
pIC50: −log10 of the molar value.
experimental.endpoint: pIC50

What does the data say about its pIC50? Entry: Cn1c(=O)n(Cc2ccc(C(=O)O)cc2)c(=O)c2cc(C#CCc3ccccc3)ccc21 < 4.60
